For each of the molecules below, state its pKi.
Experimental System: M2 muscarinic receptor subtype (Rattus norvegicus, UniProt P10980)
Construct: Submandibular glands and heart were isolated and placed in ice cold homogenising buffer
Sequence (P10980 1-466): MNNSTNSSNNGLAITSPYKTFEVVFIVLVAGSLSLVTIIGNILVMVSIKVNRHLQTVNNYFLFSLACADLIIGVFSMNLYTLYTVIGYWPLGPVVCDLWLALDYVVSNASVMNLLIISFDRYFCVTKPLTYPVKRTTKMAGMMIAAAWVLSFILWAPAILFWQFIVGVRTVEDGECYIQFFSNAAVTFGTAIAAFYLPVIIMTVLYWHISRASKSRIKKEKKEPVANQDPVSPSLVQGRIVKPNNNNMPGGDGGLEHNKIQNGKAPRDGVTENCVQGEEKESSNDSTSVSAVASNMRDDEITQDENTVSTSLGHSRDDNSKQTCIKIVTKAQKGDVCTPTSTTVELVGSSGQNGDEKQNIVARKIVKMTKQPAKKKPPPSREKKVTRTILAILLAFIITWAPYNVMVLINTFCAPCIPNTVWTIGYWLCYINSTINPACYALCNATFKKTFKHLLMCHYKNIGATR
Protocol Summary: biochemical
Give bare numbers, as −log10 of the molar value.

                                   molecule                       experimental_system  obs_value
0  O=C(N[C@H]1[C@@H]2CN(CCc3ccc4c(c3)OCO4)C[C@@H]21)[C@](O)(c1ccccc1)C1CCC(F)(F)C1 (stereo partly shown)  M2 muscarinic receptor subtype (Rattus norvegicus, UniProt P10980)       5.37

Could you tell me which pKi is on file for O=C(N[C@H]1[C@@H]2CN(CCc3ccc4c(c3)OCO4)C[C@@H]21)[C@@](O)(c1ccccc1)C1CCC(F)C1 (stereo partly shown) ? 5.20
